Target: T1, hBCMA (human BCMA) (Homo sapiens, UniProt Q02223)
T1 sequence (Q02223 1-184): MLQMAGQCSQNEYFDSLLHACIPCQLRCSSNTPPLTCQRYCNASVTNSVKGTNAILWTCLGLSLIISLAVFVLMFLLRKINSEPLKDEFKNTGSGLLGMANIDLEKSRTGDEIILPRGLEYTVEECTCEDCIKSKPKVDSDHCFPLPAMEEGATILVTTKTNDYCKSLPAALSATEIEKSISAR
Assay: Kinetics and affinity of hBCMA/human IgG interactions by SPR (Bio-Rad Proteon XPR36)
Assay type: binding
Settings: human BCMA, 37° C.
Experimental: All experiments were performed on a Bio-Rad Proteon XPR36 surface Plasmon resonance biosensor (Bio-Rad, Hercules, Calif.). […] The analysis temperature for the hBCMA binding analysis was 37° C. or 25° C. in a running buffer of HBS-T+, supplemented with 1 mg/mL BSA. […] Immediately after the 50 nM hBCMA injection, dissociation was monitored for 2 hours. […]
Assign 1 (yes) whenever kd Human does not fall below 0.0003 s⁻¹; assign 0 (no) whenever it does.

Worked cases, answers included:
• COMBO_Rd4_6 nM_C25: anti-BCMA antibody (antibody, V domains shown) VH: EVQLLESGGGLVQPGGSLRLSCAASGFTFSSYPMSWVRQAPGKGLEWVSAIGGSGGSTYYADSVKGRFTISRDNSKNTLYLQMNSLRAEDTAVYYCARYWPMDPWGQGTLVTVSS VL: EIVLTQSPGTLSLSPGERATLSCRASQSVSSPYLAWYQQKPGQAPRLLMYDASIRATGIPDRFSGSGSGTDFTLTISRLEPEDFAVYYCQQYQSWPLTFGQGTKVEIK = 0 (no)
• COMBO_Rd4_0.6 nM_C20: anti-BCMA antibody (antibody, V domains shown) VH: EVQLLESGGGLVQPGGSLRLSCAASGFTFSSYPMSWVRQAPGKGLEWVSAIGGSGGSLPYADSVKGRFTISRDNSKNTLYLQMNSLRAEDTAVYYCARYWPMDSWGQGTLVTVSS VL: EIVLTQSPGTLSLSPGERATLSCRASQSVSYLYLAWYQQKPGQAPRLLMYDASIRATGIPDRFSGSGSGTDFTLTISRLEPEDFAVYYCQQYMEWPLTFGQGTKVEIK = 0 (no)
• C01_Rd4_0.6 nM_C09: anti-BCMA antibody (antibody, V domains shown) VH: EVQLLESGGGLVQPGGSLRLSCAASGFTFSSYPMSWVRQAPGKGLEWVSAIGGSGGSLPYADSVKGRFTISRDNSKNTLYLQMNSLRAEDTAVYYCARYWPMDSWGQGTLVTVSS VL: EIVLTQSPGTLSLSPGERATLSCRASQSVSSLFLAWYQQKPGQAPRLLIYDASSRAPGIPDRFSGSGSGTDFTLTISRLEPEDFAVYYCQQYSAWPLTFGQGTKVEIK = 1 (yes)
• COMBO_Rd4_6 nM_C10: anti-BCMA antibody (antibody, V domains shown) VH: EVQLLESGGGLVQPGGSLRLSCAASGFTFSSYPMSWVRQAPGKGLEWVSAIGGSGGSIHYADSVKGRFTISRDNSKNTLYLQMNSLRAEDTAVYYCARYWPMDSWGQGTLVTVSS VL: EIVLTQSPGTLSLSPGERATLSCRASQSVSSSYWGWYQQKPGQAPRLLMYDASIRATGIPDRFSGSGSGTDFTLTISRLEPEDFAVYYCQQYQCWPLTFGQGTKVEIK = 0 (no)
• A02_Rd4_0.6 nM_C26: anti-BCMA antibody (antibody, V domains shown) VH: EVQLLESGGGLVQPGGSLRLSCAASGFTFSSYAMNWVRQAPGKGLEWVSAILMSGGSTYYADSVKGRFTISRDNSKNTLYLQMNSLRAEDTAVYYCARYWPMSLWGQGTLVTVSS VL: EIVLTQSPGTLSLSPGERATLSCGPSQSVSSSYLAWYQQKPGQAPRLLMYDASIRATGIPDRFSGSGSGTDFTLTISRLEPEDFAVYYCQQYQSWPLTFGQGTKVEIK = 1 (yes)
• COMBO_Rd4_0.6 nM_C14: anti-BCMA antibody (antibody, V domains shown) VH: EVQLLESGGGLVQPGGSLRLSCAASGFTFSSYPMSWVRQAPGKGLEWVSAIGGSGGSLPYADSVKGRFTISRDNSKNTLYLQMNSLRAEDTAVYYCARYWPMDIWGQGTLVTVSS VL: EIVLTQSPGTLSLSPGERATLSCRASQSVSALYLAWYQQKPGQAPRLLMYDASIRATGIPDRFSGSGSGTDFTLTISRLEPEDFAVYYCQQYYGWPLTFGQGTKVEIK = 1 (yes)

[Q] hey, is kd Human for this one >= 0.0003 s⁻¹? COMBO_Rd4_6 nM_C07: anti-BCMA antibody (antibody, V domains shown) VH: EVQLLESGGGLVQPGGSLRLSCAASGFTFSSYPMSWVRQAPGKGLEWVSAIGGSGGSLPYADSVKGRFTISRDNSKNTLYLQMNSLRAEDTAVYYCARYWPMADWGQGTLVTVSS VL: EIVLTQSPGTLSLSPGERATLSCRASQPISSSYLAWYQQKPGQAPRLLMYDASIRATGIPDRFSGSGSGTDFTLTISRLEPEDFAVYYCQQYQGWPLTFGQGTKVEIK
[A] 1 (yes)

[Q] hey, is kd Human for this one >= 0.0003 s⁻¹? A02_Rd4_6 nM_C04: anti-BCMA antibody (antibody, V domains shown) VH: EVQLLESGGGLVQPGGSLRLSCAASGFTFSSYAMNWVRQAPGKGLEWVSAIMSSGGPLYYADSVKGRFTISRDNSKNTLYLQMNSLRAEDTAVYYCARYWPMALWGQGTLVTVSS VL: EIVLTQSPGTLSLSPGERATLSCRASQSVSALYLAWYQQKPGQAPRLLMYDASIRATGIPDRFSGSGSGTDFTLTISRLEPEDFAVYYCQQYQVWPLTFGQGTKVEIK
[A] 1 (yes)

[Q] hey, is kd Human for this one >= 0.0003 s⁻¹? COMBO_Rd4_0.6 nM_C05: anti-BCMA antibody (antibody, V domains shown) VH: EVQLLESGGGLVQPGGSLRLSCAASGFTFSSYAMNWVRQAPGKGLEWVSAIGGSGGSTYYADSVKGRFTISRDNSKNTLYLQMNSLRAEDTAVYYCARYWPMSLWGQGTLVTVSS VL: EIVLTQSPGTLSLSPGERATLSCRASQSVSSTYLAWYQQKPGQAPRLLMYDASIRATGIPDRFSGSGSGTDFTLTISRLEPEDFAVYYCQQYMSWPLTFGQGTKVEIK
[A] 1 (yes)
